target.or.test.system: Troponin I, cardiac muscle (Homo sapiens) + Troponin T, cardiac muscle (Homo sapiens) + Troponin C, slow skeletal and cardiac muscles (Homo sapiens) (UniProt P19429+P45379+P63316)
assay.summary: cardiac RTF calcium sensitivity inhibitors, primary screen, biochemical, IANBD-TnC fluorescence, EC70 calcium (AID 493244);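 also: assay run at fixed EC70 calcium of 1.6 mM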
test.context: IANBD-labeled cardiac RTF, Ca2+ fluorescence; at 7.15 µM; stronger effect = higher value
In all, about 340,000 compounds went through this assay and about 390 (0.11%) were called active. Many of the other results were omitted from the sample, so actives are more common in it than they were.

compound | quantity.unit | inhibition
COC(=O)CCc1sc(Nc2ccc(Br)cc2)nc1-c1ccc(OC)cc1 | % | 20.8
CCc1noc(C)c1C(=O)Oc1ccc(N(C)S(=O)(=O)c2ccc(C)c(C)c2)cc1 | % | 0.79
CC1(C)CC(=O)C=C(NCc2ccncc2)C1 | % | -4.04
Cc1nnc(NC(=O)CCC(=O)N2CCC(C)CC2)s1 | % | -6.77
COC(=O)C1=NN(c2ccccc2)C2C(=O)N(c3ccccc3OC)C(=O)C12 (stereo unspecified) | % | -2.73
CC1CN(S(=O)(=O)c2cccc(C(F)(F)F)c2)CN1C(=O)N1CCOCC1 (stereo unspecified) | % | 9.08
